melting point: recorded values

Please review the entries below; each comes with its answer.
molecule	melting point
Cl.NCc1ccc(N/C(=C2\C(=O)Nc3ccc([N+](=O)[O-])cc32)c2ccccc2)cc1	> 370 °C
CC(=O)N(CCN(C)C)c1ccc(N/C(=C2\C(=O)Nc3ccccc32)c2ccccc2)cc1	197 to 199 °C
CN(C)CCc1ccc(N/C(=C2\C(=O)Nc3ccccc32)c2ccccc2)cc1	244 to 246 °C
CC(=O)NCc1ccc(/C(Nc2cccc(N(CC(=O)N(C)C)S(C)(=O)=O)c2)=C2/C(=O)Nc3ccccc32)cc1	194 °C
CCCN(CCC)Cc1ccc(N/C(=C2\C(=O)Nc3ccc([N+](=O)[O-])cc32)c2ccccc2)cc1	160 to 162 °C
CNC(=O)CN(c1cccc(N/C(=C2\C(=O)Nc3ccccc32)c2ccc(CN)cc2)c1)S(C)(=O)=O	164 °C
CN(C)C(=O)CN(C(=O)c1ccccc1)c1ccc(N/C(=C2\C(=O)Nc3ccccc32)c2ccccc2)cc1	284 to 287 °C
CC(C)(C)OC(=O)NCc1ccc(N/C(=C2\C(=O)Nc3ccc([N+](=O)[O-])cc32)c2ccc(CN)cc2)cc1	220 to 223 °C
CCCCN(CCCC)Cc1ccc(N/C(=C2\C(=O)Nc3ccc([N+](=O)[O-])cc32)c2ccccc2)cc1	175 °C
CS(=O)(=O)N(CC(N)=O)c1ccc(N/C(=C2\C(=O)Nc3ccccc32)c2ccccc2)cc1	276 to 278 °C

Query: // returns reported melting point for input O=C1Nc2ccccc2/C1=C(/Nc1ccc(NS(=O)(=O)CCN2CCCCC2)cc1)c1ccccc1
Response: 225 to 227 °C

Query: // returns reported melting point for input CN(C)CCCN(c1cccc(N/C(=C2\C(=O)Nc3ccccc32)c2ccc(CN)cc2)c1)S(C)(=O)=O
Response: 197 °C

Query: // returns reported melting point for input CCOC(=O)CN(c1ccc(N/C(=C2\C(=O)Nc3ccccc32)c2ccccc2)cc1)S(=O)(=O)CC
Response: 228 to 230 °C

Query: // returns reported melting point for input COC(=O)C(N)Cc1ccc(N/C(=C2\C(=O)Nc3ccc([N+](=O)[O-])cc32)c2ccccc2)cc1.Cl (stereo not drawn)
Response: 215 °C (dec.)

Query: // returns reported melting point for input CCOC(=O)CNC(=O)c1cccc(N/C(=C2\C(=O)Nc3ccccc32)c2ccccc2)c1
Response: 233 to 235 °C

---

assay.metric: melting point

molecule	melting point
CN(C(=O)CN1CCN(Cc2ccccc2)CC1)c1ccc(N/C(=C2\C(=O)Nc3ccc([N+](=O)[O-])cc32)c2ccccc2)cc1 [Example 104]	201 to 203 °C
O=C1Nc2ccc([N+](=O)[O-])cc2/C1=C(/Nc1ccc(CNC2CCCCC2)cc1)c1ccccc1 [Example 278]	245 °C
NC(=O)C1CCN(Cc2ccc(N/C(=C3\C(=O)Nc4ccc([N+](=O)[O-])cc43)c3ccccc3)cc2)CC1 [Example 247]	296 to 297 °C
CC(C)S(=O)(=O)N(CCN(C)C)c1ccc(N/C(=C2\C(=O)Nc3ccccc32)c2ccccc2)cc1 [Example 309]	247 °C
Cc1ccc(S(=O)(=O)N(CC(=O)N(C)C)c2ccc(N/C(=C3\C(=O)Nc4ccccc43)c3ccccc3)cc2)cc1 [Example 206]	223 to 226 °C
O=C(CN1CCOCC1)Nc1ccc(N/C(=C2\C(=O)Nc3ccc([N+](=O)[O-])cc32)c2ccccc2)cc1 [Example 96]	265 to 267 °C

Now for another entry.
Query: // returns reported melting point for input COC(=O)Cc1ccc(N/C(=C2\C(=O)Nc3ccc([N+](=O)[O-])cc32)c2ccccc2)cc1 [Example 180]
Response: 238 to 240 °C
